All figures here come from PubChem BioAssay (NCI).

Test system: DU-145 prostate
Assay overview: NCI-60 one-dose screen, 48 h
Assay context: 10 µM unless noted
This is part of a sample that, as a whole, favours compounds with a hit. Of some 83,000 tested, about 20% had one in any assay. Activity calls are given as the source filed them. The calls were made as follows: active = growth percent below 10; inactive = the rest.
Please answer using one outcome listed in active, inactive

Called result for `Cc1ccccc1CNc1ncnc2[nH]ncc12` inactive

Hey, what did the test say about Cc1ccc(C2CC(c3cccs3)=NN2c2ccc(S(N)(=O)=O)cc2)s1 (stereo unspecified) ? inactive

Fill in: this test's call for `Nc1nc(N)c2cc(CNc3ccc(Cl)c(Cl)c3)ccc2n1` is ___ inactive

Look up the recorded call for `C[C@@H](C[C@H](CC1CC1)c1ccccc1)c1ccc2ccccc2c1` in this test. inactive

Tell me the recorded outcome of this test for `Clc1ccc2c(c1)-c1ccccc1C1=NCCN12` . inactive

Tell me the assay call for `CCCCCCCCCCCCCCCc1cc(O)ccc1[N+](=O)[O-]` please. inactive

Please let me know the test result on file for `O=C(CI)NCCNc1cccc2c(S(=O)(=O)O)cccc12` . inactive

Name the outcome recorded for O=C1c2ccccc2C2N1CCC1CCc3ccccc3N12 (stereo unspecified) in the assay. inactive

Status in this test for `COc1ccc(/C=C2\Cc3c(Br)cccc3C2=O)c(OC)c1` ? inactive

How did this test come out for `CCn1c(CN2CCN(Cc3ccccc3)CC2)nc2cc(NC(=O)c3cccs3)ccc21` ? active

Per the records of this test, what outcome belongs to Cc1cc(NC(=O)C2c3ccccc3C(=O)N(CC(C)C)C2c2cccs2)no1 (stereo unspecified) ? active

----------
Test system: SNB-75 CNS
Assay overview: NCI-60 one-dose screen, 48 h (100 = growth as untreated, 0 = no growth, -100 = all killed)
Assay context: 10 µM unless noted
About 83,000 compounds went through this panel and 20% of them were active in at least one assay; those are over-represented in the sample as a whole.
Value kind: growth (%)
Give your result in % as a bare value.

I am curious: what growth value has been reported for `CCCCn1c(C)nc2ccc(Nc3nc(Cl)nc4nc[nH]c34)cc21` ? 62.8

What value of growth has been recorded for this entry: COc1ccc(C2CC(c3cccc(Nc4ccnc5cc(Cl)ccc45)c3)=NN2c2ccccc2)cc1 (stereo not given) 62.5

Entry `Brc1cccc(-n2ncc3c(Nc4ccc(-c5nnc(-c6ccccc6)o5)cc4)ncnc32)c1` has what growth? 92.3

Please look up its growth: `COc1ccc([C@@H]2[C@@H](Oc3ccccc3)C(=O)N2c2cc(OC)c(OC)c(OC)c2)cc1F` 61.4

Please give the measured growth for this compound: COc1ccc(/C=C2\CCCC3=C2N=C2SC(C)=NN2C3c2ccc(OC)c(OC)c2)cc1OC (stereo not given) 27.7

----------
Tested on: MOLT-4 leukemia
Assay overview: NCI-60 one-dose screen, 48 h
Assay context: 10 µM unless noted
The panel holds about 83,000 compounds, 20% with a hit somewhere; the sample as a whole holds those more often. Activity calls are given as the source filed them. Rule for the calls: active = growth percent below 10; inactive = the rest.
One label from this list, please: active, inactive

Hi team, can someone confirm the assay call for `NC(=Nc1ccccc1)SCCCSC(N)=Nc1ccccc1` ? inactive

Identify the outcome logged in this assay for the molecule shown: `Cc1ccc(Nc2nc(NCCO)c3ccccc3n2)cc1C` inactive

Outcome? `COc1cccc(Cn2c(-c3nonc3NC(C)=O)nc3ccccc32)c1` inactive

Please let me know the test result on file for CCN(CC)CCCC(C)N/C(c1cccc(OC)c1)=c1\c(=O)[nH]n(-c2c3ccccc3nc3ccccc23)c(=O)\c1=C(/NC(C)CCCN(CC)CC)c1cccc(OC)c1 (stereo not given) . active

Would you mind telling me which call this test gave `Nc1nc(N)c2cc(CNc3ccc(Cl)c(Cl)c3)ccc2n1` ? active

State the result this test recorded for COc1ccc(C2=NN(C=O)C(c3ccc(OS(=O)(=O)c4ccc(C)cc4)c(OC)c3)C2)cc1 (stereo not given) . inactive

Write down the call the test reported for this molecule. Item: `CN(C)c1ccc(/C=C(\C#N)c2nc3ccccc3n2C)cc1` inactive

# outcome recorded in this test, key = `O=c1[nH]c2ccccc2n2cc3cccnc3c12` inactive

Which outcome was entered for the molecule `NNC(=O)Cc1ccccc1` in this test? inactive

Could you check what this test reported for `C#CCNC(=S)N/N=C(\C)c1ccccn1` ? active

Query: recorded result category for `COc1cc2nccc(Oc3ccc(NC(=O)C4(C(=O)Nc5ccc(F)cc5)CC4)cc3)c2cc1O` in this test inactive

Record request — test call for `COc1ccc(C(=O)/C=C/c2cn(-c3ccccc3)nc2-c2cccc(Nc3ccnc4cc(Cl)ccc34)c2)cc1` inactive

Per the records of this test, what outcome belongs to `CCN(CC)CCCCCCCNc1cc(OC)cc2c(C)ccnc12` ? inactive

How did this test come out for `O=C1C=CC(=O)N1CO` ? active

// param item: `COc1cc2nccc(Oc3ccc(NC(=O)C4(C(=O)Nc5ccc(F)cc5)CC4)cc3)c2cc1Oc1ccc(N)cn1` ; yields the recorded call inactive

What call does the record list for `CC1CCN(Cc2ccc(NC(=O)c3cc4ccc5cccnc5c4[nH]3)cc2)CC1` ? inactive

Each molecule tested received a call. Report the one for CC(C)CC(NC(=O)OCC1c2ccccc2-c2ccccc21)C(=O)O (stereo not given) . inactive

How did this test come out for CCOC(CN1CCN(CC(C)C(=O)c2ccccc2)CC1)c1ccccc1 (stereo not given) ? inactive

Short answer needed: outcome of this test for C=C1NC(=O)C(C(C)CC)NC(=O)C2CSCC(NC(=O)CCC(=O)O)C(=O)NC(Cc3ccccc3)C(=O)NC(C)C(=O)NC(CC(C)CC)C(=O)NC(C(=O)NC(Cc3ccccc3)C(=O)N3CCCC3C(=O)N2)C(C)OC(=O)C(CO)NC(=O)C(C(O)COC)N(C)C(=O)C(C(C)C)NC(=O)C(CC(C)CC)NC1=O (stereo not given) ? inactive

What did the test return for `Cc1nc2ccc(Nc3nc(Cl)nc(N4CCOCC4)n3)cc2n1Cc1ccccc1` ? inactive
